protein stability index listing for selected variants.
B1: SLC35F2 (parent)
chain: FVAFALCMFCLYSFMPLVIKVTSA

- Variants of: B1
- Test name: protein stability index of a GFP-peptide fusion (GPS, HEK-293T) (PSI 1-6); higher = more stable;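 also: lentivirally expressed fusions sorted by FACS into six bins by GFP to DsRed ratio, PSI derived from sequencing read proportions per bin multiplied by bin number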
- Settings: c terminus: a fixed tail appended
Answer field: number only, no words.

Answered cases to consult:
Variant code: C7L
protein stability index: 2.99
//
Variant code: I19G
protein stability index: 3.04

Enquiry: Look up protein stability index for this variant: P16T
Return: 2.05

Enquiry: How about L6T ?
Return: 2.16

Enquiry: How about T22D ?
Return: 2.05

Enquiry: How about I19P ?
Return: 2.86
